systemUnderTest: α5β1 integrin on K562 cells (UniProt P08648 42-1049; P05556 21-798)
Sequence (P08648 42-1049, chain 1 of 2): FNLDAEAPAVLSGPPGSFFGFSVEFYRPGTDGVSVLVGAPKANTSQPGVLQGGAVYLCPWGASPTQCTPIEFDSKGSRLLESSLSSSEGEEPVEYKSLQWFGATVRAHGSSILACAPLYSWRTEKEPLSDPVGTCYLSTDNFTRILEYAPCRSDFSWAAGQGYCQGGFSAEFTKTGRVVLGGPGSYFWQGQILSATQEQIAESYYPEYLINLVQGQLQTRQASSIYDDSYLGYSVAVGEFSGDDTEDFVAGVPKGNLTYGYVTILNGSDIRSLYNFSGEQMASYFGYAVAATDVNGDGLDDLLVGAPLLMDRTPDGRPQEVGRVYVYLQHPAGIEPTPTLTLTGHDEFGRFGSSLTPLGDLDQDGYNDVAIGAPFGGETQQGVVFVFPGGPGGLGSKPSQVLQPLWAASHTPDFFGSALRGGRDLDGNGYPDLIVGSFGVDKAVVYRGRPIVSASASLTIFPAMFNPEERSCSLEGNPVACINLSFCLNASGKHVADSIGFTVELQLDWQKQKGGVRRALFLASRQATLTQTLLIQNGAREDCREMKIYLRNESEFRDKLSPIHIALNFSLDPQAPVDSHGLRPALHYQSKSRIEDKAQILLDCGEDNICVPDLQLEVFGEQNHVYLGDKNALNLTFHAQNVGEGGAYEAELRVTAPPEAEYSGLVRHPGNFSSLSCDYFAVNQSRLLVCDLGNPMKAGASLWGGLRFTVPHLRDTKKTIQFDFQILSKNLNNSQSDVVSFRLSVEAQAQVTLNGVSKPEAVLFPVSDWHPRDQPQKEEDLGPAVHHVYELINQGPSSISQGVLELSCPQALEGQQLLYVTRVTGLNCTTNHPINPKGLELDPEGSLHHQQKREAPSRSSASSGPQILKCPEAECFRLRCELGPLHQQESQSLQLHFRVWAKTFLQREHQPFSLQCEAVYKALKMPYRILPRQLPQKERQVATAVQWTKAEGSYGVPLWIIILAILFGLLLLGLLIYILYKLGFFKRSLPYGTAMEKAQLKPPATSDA
Sequence (P05556 21-798, chain 2 of 2): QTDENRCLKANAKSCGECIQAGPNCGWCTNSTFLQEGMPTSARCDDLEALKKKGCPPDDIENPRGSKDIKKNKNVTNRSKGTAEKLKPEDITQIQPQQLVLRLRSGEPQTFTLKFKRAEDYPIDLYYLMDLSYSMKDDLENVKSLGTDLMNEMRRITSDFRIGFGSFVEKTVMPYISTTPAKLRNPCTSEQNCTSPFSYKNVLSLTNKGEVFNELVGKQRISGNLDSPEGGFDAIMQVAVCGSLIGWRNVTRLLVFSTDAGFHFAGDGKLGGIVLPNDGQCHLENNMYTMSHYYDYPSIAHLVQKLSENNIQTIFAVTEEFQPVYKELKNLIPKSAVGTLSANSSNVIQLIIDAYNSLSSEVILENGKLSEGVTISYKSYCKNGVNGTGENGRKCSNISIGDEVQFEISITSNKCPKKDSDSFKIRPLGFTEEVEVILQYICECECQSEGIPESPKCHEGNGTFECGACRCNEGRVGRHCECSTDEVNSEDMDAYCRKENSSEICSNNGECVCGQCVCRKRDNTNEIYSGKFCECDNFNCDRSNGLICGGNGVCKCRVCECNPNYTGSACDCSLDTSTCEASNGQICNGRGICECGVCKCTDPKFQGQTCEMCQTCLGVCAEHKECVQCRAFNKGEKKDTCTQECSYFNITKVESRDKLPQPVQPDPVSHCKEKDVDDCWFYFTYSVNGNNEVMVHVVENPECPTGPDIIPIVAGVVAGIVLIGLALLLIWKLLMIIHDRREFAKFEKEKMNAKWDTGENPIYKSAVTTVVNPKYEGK
testMethodNotes: cell-based or functional assay
Each entry below carries its recorded Percent Inhibition of K562 adhesion to FN9-10, 5 ug/ml.
Quick note: give the figure in %, leave out the unit.

binder	dataValue
sc 298 (antibody, V domains shown, lambda light chain) VH: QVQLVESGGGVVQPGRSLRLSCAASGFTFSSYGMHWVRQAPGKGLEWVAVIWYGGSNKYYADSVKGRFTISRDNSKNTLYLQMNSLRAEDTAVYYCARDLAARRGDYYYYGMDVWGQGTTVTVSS VL: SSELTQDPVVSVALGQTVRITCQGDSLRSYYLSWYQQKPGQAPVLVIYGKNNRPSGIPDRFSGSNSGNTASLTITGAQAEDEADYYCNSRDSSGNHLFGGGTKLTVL	2

Prompt line: Percent Inhibition of K562 adhesion to FN9-10, 5 ug/ml lookup needed for sc 188 (antibody, V domains shown, kappa light chain) VH: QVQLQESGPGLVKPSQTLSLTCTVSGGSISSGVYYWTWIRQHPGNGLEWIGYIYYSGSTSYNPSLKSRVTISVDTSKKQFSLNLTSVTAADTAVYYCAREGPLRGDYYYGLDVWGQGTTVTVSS VL: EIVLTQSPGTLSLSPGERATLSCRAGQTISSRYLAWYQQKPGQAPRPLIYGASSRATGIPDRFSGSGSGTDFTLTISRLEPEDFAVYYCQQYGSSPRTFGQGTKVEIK , thanks.
Response line: 5

Prompt line: Percent Inhibition of K562 adhesion to FN9-10, 5 ug/ml lookup needed for sc 133 (antibody, V domains shown, lambda light chain; also called mAb sc 133) VH: QVQLVQSGAEVKKPGASVKVSCKASGYTFTGYYMHWVRQAPGQGLEWMGWINPKSGDTNYAQKFQGRVTLTRDTSTSTAYMELSRLRSDDTAVYYCARRLDVWGQGTTVTVSS VL: QSVLTQPPSVSAAPGQKVTISCSGSSSNIGNNYVSWYQQLPGTAPKLLIYDNNKRPSGIPDRFSGSKSGTSATLGITGLQTGDEADYYCGTWNSSLSAGYVFGTGTKVTV , thanks.
Response line: -12

Prompt line: Percent Inhibition of K562 adhesion to FN9-10, 5 ug/ml lookup needed for sc 254 (antibody, V domains shown, kappa light chain) VH: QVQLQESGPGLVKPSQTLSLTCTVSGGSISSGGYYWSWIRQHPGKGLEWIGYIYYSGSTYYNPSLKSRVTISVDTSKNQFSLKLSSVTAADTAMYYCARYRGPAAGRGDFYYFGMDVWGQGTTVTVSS VL: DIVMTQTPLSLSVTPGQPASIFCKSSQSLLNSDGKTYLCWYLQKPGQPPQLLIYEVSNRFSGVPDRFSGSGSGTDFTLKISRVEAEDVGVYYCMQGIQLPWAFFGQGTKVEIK , thanks.
Response line: -9

Prompt line: Percent Inhibition of K562 adhesion to FN9-10, 5 ug/ml lookup needed for sc 264 (antibody, V domains shown, lambda light chain) VH: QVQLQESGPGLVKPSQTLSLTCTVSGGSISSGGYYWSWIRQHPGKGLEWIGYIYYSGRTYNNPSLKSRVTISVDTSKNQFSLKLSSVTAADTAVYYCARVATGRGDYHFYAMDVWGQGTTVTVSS VL: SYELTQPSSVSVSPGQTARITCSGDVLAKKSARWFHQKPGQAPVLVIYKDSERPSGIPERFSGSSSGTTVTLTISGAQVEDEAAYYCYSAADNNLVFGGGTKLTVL , thanks.
Response line: -4
